biological target: Aβ1-42 Peptide Aggregates (Homo sapiens); assay: ^3H-Astemizole saturation binding to Aβ1-42 peptide aggregates; conditions: saturation test
Sequence (P05067 672-713): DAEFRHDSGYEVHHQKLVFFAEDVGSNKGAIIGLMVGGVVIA
Metric name: Kd
Answer format: number, then unit.

Consider the compound `COc1ccc(CCN2CCC(Nc3nc4ccccc4n3Cc3ccc(F)cc3)CC2)cc1` tested on Aβ1-42 Peptide Aggregates (Homo sapiens); state its Kd.
2.1 nM

---

experiment: In vivo pharmacokinetics in blood and cerebral tissue (HPLC/UV); settings: male, C2 albino, rat, brain (cerebral tissue), iv, maximum concentration (Tmax) in the brain, astemizole 16 mg/kg, lansoprazole 8 mg/kg, cerebral tissue
Metric name: Tmax (min)
Numeric answer only, unit min assumed.

Item Cc1c(OCC(F)(F)F)ccnc1C[S+]([O-])c1nc2ccccc2[nH]1 (stereo not shown) : provide Tmax
37
